Target: Glucocorticoid receptor (Homo sapiens)
Assay: qHTS assay to identify small molecule antagonists of the glucocorticoid receptor (GR) signaling pathway (AID 720692)
Conditions: GR-bla HeLa, beta-lactamase FRET ratio, dexamethasone-stimulated, 18 h; series mostly up to 58.5 µM
Results filed as inconclusive are left out. Active and inactive are the calls of the source. Calls follow the shape of the dose curve; as a rule, active = well fitted inhibition curve with a large enough effect in the signal ratio in the repeat runs (not every such curve was filed as active); inconclusive = weak or mixed curves, or effect the other way; inactive = no such curve, though single readings can be large or run the other way; the % refers to the signal ratio.
Reported Property: activity change, negative = inhibition

A selection of reference data follows.
Molecule | activity change, negative = inhibition
O=C(CCBr)N1CCN(C(=O)CCBr)CC1 | inactive
Cc1nc2ccc(Cl)cc2[nH]1 | inactive
COC(=O)c1ccccc1Cl | inactive
C=CCN(CC=C)CC=C | inactive
Cc1cc(O)c(Cl)cc1C | inactive

Consider the molecule shown here: `O=C1Nc2ccccc2C1=O` What is its recorded activity change, negative = inhibition?
inactive

Bench note: what activity change, negative = inhibition did `C=CCN1CCc2nc(N)sc2CC1` show?
inactive
